# targetUnderTest: Porcn (Mus musculus, UniProt Q9JJJ7)
# Sequence (Q9JJJ7 whole entry): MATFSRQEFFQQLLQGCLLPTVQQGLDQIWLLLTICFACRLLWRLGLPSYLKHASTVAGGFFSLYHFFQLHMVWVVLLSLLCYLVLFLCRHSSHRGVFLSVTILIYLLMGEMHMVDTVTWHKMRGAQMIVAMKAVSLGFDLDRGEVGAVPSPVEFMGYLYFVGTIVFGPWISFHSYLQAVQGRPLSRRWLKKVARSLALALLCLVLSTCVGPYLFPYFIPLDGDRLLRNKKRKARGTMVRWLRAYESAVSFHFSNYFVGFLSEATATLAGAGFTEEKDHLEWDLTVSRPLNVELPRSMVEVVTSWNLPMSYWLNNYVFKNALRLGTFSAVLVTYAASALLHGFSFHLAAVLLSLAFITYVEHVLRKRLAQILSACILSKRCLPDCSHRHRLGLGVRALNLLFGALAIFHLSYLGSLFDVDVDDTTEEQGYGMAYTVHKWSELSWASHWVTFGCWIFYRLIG
# assayRemarks: Suppression of Wnt signaling in L-Wnt-STF cells
# Format: cell-based
quantityKind: pEC50
Conceptually, pEC50 converts a concentration in mol/L into minus its log10.

Test system Porcn (Mus musculus, UniProt Q9JJJ7); read-out pEC50; what value for O=C(CSc1nnc(-c2ccncc2)n1-c1ccccc1)Nc1ccc(-c2cccnc2)cc1 [IWP-L2] ?
9.52

Test system Porcn (Mus musculus, UniProt Q9JJJ7); read-out pEC50; what value for Cc1cc(-c2ncc(CC(=O)Nc3ccc(-c4cnccn4)cn3)cc2C)ccn1 [LGK974, reference compound] ?
9.70
